settings: in acetone, 298.15 K
observationType: solubility (mole fraction)
// keep it numeric: no unit symbol after the value

Lookup: Given the entry `O.O=C1NC(=O)C(=O)C(=O)N1` , report its measured solubility (mole fraction).
Found: 0.0132

----------
conditions: in acetone, 293.15 K
observationType: solubility (mole fraction)

Lookup: Given the compound `O.O=C1NC(=O)C(=O)C(=O)N1` , what is its reported solubility (mole fraction)?
Found: 0.0128

----------
settings: in acetone, 303.15 K
observationType: solubility (mole fraction)

Lookup: Give the measured solubility (mole fraction) of `O.O=C1NC(=O)C(=O)C(=O)N1` .
Found: 0.0136

----------
conditions: in ethanol, 318.15 K
observationType: solubility (mole fraction)
Response field accepts a number only; no unit should be typed.

Lookup: Requested read-out: solubility (mole fraction). Entry: `O.O=C1NC(=O)C(=O)C(=O)N1`
Found: 0.143
